Data provenance is patent EP3771714A1.

Property: Wirkung in %; scope: individual compounds
Tested on: Myzus persicae
Experiment: Myzus persicae spray test
Type: in vivo
Conditions: 100 g/ha; Chinese cabbage leaf discs (Brassica pekinensis), all stages; after 5 days
Express it in %; write the number only.

Solved entries (count: 4):
[
  {
    "Structure notation": "FC(F)(F)c1ccc(-n2ccccc2=Nc2nc(C3(F)CC3)cs2)cn1",
    "Unit tag": "%",
    "Wirkung in %": 90
  },
  {
    "Structure notation": "N#CC1(c2csc(N=c3ccccn3-c3ccc(C(F)(F)F)nc3)n2)CC1",
    "Unit tag": "%",
    "Wirkung in %": 100
  },
  {
    "Structure notation": "FC(F)(F)c1ccc(-n2ccccc2=Nc2nc(C(F)(F)F)cs2)cn1",
    "Unit tag": "%",
    "Wirkung in %": 100
  },
  {
    "Structure notation": "CCc1csc(N=c2ccccn2-c2ccc(C(F)(F)F)nc2)n1",
    "Unit tag": "%",
    "Wirkung in %": 90
  }
]

**Query** Please report the recorded Wirkung in % for `FC(F)(F)c1ccc(-n2ccccc2=Nc2nc(C3CC3)cs2)cn1` .
**Result** 90

**Query** Please do the same for `Cc1csc(N=c2ccccn2-c2ccc(C(F)(F)F)nc2)n1` as well.
**Result** 90
